Value source: PubChem BioAssay (NCI)

Tested on: BT-549 breast
Experiment: NCI-60 one-dose screen, 48 h (100 = growth as untreated, 0 = no growth, -100 = all killed)
Settings: 10 µM
The panel holds about 83,000 compounds, 20% with a hit somewhere; the sample as a whole holds those more often.
# Lookup of reported growth keyed by entry

# SMILES, growth [%]
rows = [
    ("O=C(NO)c1ccc(Cn2ccc3c(NCc4ccccc4)ncnc32)cc1", -22),
    ("COc1ccc(-c2ccc(SCC(=O)Nc3ccc(C#N)cc3)nn2)cc1", 88.6),
    ("CC(=O)Nc1nc(-c2ccc(N3CCN(C)CC3)c(NS(=O)(=O)c3cccc4c(N(C)C)cccc34)c2)cs1", 36.6),
    ("O=C(Nc1ccncc1)c1ccc(-n2c(=O)[nH]c3ccccc3c2=O)cc1", 92.6),
    ("CCOc1ccc(/C=N/NC(=O)Cn2nc(Cc3ccc([N+](=O)[O-])cc3)c3onc(C)c3c2=O)cc1", 55.2),
    ("O=c1[nH]n(C(=S)N/N=C/c2ccc(F)cc2)c(=O)c2ccccc12", 70.1),
    ("CN1C(=O)/C(=C/c2ccc3ncsc3c2)NC1=NC12CC3CC(CC(O)(C3)C1)C2", -39.9),
    ("CC1(C)[C@@H](NCO)CC[C@]2(C)[C@H]3C(=O)C=C4[C@@H]5C[C@](C)(CO)CC[C@]5(C)CC[C@@]4(C)[C@]3(C)CC[C@@H]12", 81.8),
    ("COc1ccc2[nH]c(O)c(N=NC(=O)c3cc(-c4ccc(C)cc4)nc4ccccc34)c2c1", 139),
]
